TEST SYSTEM: Coagulation factor XII (Homo sapiens)
PROTOCOL SUMMARY: coagulation factor XIIa activity inhibition – biochemical, 1536-well, primary screen (AID 800);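 note: 0% = enzyme with no compound and 100% = blank without enzyme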
EXPERIMENTAL CONDITIONS: purified FXIIa, Boc-QGR-AMC fluorogenic substrate, 2 h; at 5 µM; hits give high values
About 650 (0.3%) of roughly 220,000 compounds were called active. This is one part of a sample in which actives are shown more often than they occur.
Short version: inhibition at least 6% is fulfilled, less is not fulfilled.

>>> label_value("c1ccc(-n2cccc2)c(N2CCCCC2)c1")
"fulfilled"
>>> label_value("CC1(C)CC(=O)C=C(Nc2ccccc2)C1")
"fulfilled"
>>> label_value("CCOc1c(Nc2cccc(Cl)c2)c(=O)c1=O")
"fulfilled"
>>> label_value("COc1ccc2oc(N)c(C=O)c(=O)c2c1")
"fulfilled"
>>> label_value("COc1ccc(CCNC(=O)CCn2c(=O)oc3ccccc32)cc1OC")
"fulfilled"
>>> label_value("NS(=O)(=O)c1ccc(CCNC(=O)NC2CCCCC2)cc1")
"fulfilled"

Determine whether measured inhibition meets or exceeds 6% for `CCOc1cc(CO)ccc1OCC(=O)N1CCCCC1`
fulfilled

Determine whether measured inhibition meets or exceeds 6% for `CSc1nnc(SCc2nc3sc(C(=O)O)c(C)c3c(=O)[nH]2)s1`
fulfilled

---

TEST SYSTEM: Coagulation factor XII (Homo sapiens) (UniProt P00748)
Sequence (P00748 20-372 limits assumed): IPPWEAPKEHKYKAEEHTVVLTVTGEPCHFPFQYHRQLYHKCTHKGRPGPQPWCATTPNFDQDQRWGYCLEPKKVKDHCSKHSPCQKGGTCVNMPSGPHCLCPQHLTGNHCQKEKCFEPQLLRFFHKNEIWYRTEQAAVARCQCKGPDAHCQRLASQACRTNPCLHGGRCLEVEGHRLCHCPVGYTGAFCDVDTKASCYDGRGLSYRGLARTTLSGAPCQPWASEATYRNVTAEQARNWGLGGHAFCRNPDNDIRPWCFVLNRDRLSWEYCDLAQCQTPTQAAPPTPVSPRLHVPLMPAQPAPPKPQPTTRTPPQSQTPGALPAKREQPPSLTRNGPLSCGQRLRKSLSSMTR
Sequence (P00748 373-615 limits assumed): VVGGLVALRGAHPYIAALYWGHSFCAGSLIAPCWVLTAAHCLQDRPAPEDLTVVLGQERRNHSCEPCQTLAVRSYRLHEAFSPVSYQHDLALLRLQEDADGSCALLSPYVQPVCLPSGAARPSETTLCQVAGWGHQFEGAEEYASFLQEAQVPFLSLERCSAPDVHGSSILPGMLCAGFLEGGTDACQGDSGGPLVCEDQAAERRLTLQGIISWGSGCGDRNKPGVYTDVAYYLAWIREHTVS
PROTOCOL SUMMARY: coagulation factor XIIa activity inhibition – biochemical, 1536-well, primary screen (AID 800);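 note: 0% = enzyme with no compound and 100% = blank without enzyme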
EXPERIMENTAL CONDITIONS: purified FXIIa, Boc-QGR-AMC fluorogenic substrate, 2 h; at 5 µM
Among all 220,000 compounds or so, about 650 (0.3%) were called active. Rule as the data show it: active = inhibition above about 40%; inactive = the rest. The sample holds actives, similar compounds and a random draw of the others, so the mix is not that of the screen.
In this exercise, the only acceptable responses are active, inactive

>>> label_value("Cc1nn2c(NCCN(C)C)c3c(nc2c1-c1ccccc1)CCC3")
"inactive"
>>> label_value("Cc1cc(Cl)ccc1NNC(=O)c1snnc1C")
"inactive"
>>> label_value("N#Cc1c(NCCO)ccc([N+](=O)[O-])c1NCCO")
"inactive"
>>> label_value("COC(=O)c1c(C)oc(C)c1S(=O)(=O)NCc1ccc(Cl)cc1")
"inactive"
>>> label_value("Cc1ccc(C2=C/C(=C\\c3cccnc3)C(=O)O2)cc1")
"inactive"

Consider now this further compound.
Answer briefly: the call reported for `O=C(Nc1cccc(S(=O)(=O)NC2=NCCC2)c1)C1CCCCC1` in this assay.
inactive

---

TEST SYSTEM: Coagulation factor XII (Homo sapiens) (UniProt P00748)
PROTOCOL SUMMARY: coagulation factor XIIa activity inhibition – biochemical, 1536-well, primary screen (AID 800);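 note: 0% = enzyme with no compound and 100% = blank without enzyme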
EXPERIMENTAL CONDITIONS: purified FXIIa, Boc-QGR-AMC fluorogenic substrate, 2 h; at 5 µM; hits give high values
Out of some 220,000 compounds screened, about 650 (0.3%) were called active. The sample holds actives, similar compounds and a random draw of the others, so the mix is not that of the screen.
VALUE KIND: inhibition (%)
Please give a number only; it is taken to be in %.

>>> quantitative_result("S=c1[nH]nc(-c2cc(-c3ccccc3)n[nH]2)n1/N=C/c1c2ccccc2cc2ccccc12")
8.1
>>> quantitative_result("O=C(Cc1ccccc1)Nc1c(Cl)ccc2nsnc12")
2.05
>>> quantitative_result("COC(=O)[C@H](Cc1ccccc1)NC(=O)Nc1ccc(OC)cc1")
4.58
>>> quantitative_result("O=C(O)C1CCN(C(=O)c2cc(F)cc3c2OCOC3)CC1")
4.37
>>> quantitative_result("C=CCC1(C#N)C(=S)NC(C)=C(C(=O)OCC)C1c1ccccc1 (centres undefined)")
6.96

What does the data say about its inhibition? Entry: `Nc1nc(Sc2ncccc2[N+](=O)[O-])n[nH]1`
7.38

What does the data say about its inhibition? Entry: `CCCCN1Cc2c(nc3cc(-c4ccccc4)[nH]n3c2=O)C1=O`
-5.1

What does the data say about its inhibition? Entry: `CN(C)C(=O)c1coc2nc3ccccc3nc12`
7.55

What does the data say about its inhibition? Entry: COCCN(C(=S)Nc1cccc(Cl)c1C)C(C)c1ccco1 (centres undefined)
6.59

What does the data say about its inhibition? Entry: `C=CCCN(Cc1ccccc1)S(=O)(=O)c1ccccc1Br`
5.98

What does the data say about its inhibition? Entry: `C/C(=N/Nc1nc(-c2ccccc2)c(CC(=O)O)s1)c1ccccc1`
10.1

What does the data say about its inhibition? Entry: COP1(=O)C[C@@H](O)[C@@H](O)[C@@H](COCc2ccccc2)O1 (some centres undefined)
5.94
